Study target: MOP receptor (Rattus norvegicus)
Construct: from tissue; host or cells: Sprague-Dawley rat brain membranes
Sequence (P33535 whole entry): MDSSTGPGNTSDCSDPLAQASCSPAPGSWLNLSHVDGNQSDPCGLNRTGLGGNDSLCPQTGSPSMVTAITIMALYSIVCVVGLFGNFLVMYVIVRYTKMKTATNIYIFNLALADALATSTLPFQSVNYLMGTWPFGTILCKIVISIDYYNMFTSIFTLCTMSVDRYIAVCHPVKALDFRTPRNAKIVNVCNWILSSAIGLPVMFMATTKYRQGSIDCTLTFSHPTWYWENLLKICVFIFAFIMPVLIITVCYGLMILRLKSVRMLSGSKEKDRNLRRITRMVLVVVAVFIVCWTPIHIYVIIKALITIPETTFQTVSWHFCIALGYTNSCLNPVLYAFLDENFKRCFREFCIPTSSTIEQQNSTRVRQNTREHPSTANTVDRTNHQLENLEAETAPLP
Method description: Radioligand binding assay, MOP receptor, rat brain membranes ([3H]DAMGO)
Measured endpoint: Ki (nM)
Provide only the numeric value, understood in nM.

Can you look up the measured Ki of COc1ccc2c3c1O[C@H]1C(=O)CC[C@@]4(OC)[C@@H](C2)N(C)CC[C@]314 [14-OMC, 14-O-methyloxycodone, reference compound] for me?
35.3

// query: COc1ccc2c3c1OC1C(C#N)=CCC4(OC)C(C2)N(C)CCC314 (stereo not shown)
7.39

// query: COc1ccc2c(c1OC)C13C=C(C(N)=O)CCC1(OC)C(C2)N(C)CC3 (stereo not shown)
1.61

// query: COc1ccc2c(c1OC)C13C=C(C#N)C=CC1(OC)C(C2)N(C)CC3 (stereo not shown)
0.54

All figures here come from paper PMC4121618.
